Data provenance: patent US9067922B2

target: URAT-1 transporter (Homo sapiens (Human)); assay: URAT-1 inhibitor activity: [14C]-uric acid uptake in CHO-URAT1(L)GFP#8 (CHO#8) cells, scintillation proximity; assay type: cell-based; details: inhibition of [14C]-uric acid (30 nM) uptake into CHO#8 cells; compound 0 to 10 μM; 4 parameter logistic fit
measurement.label: IC50 (nM)

N#Cc1cc(S(=O)(=O)Nc2ccc(F)cn2)ccc1Oc1ccc(Cl)cc1F [Example 47]	50

A = Cc1cc(Cl)cc(Oc2ccc(S(=O)(=O)Nc3ccc(F)cn3)cc2C#N)c1C [Example 159]
B = N#Cc1ccc(Oc2ccc(S(=O)(=O)Nc3ccc(F)cn3)cc2C#N)cc1Cl [Example 1]
Inquiry: # min-compare on IC50 between A and B Please identify the chosen entry by its label.
Reply text: B

A = N#Cc1ccc(F)c(Oc2ccc(S(=O)(=O)Nc3ccc(F)cn3)cc2C#N)c1 [Example 69]
B = CCc1cc(F)ccc1Oc1ccc(S(=O)(=O)Nc2ccc(F)cn2)cc1C#N [Example 56]
C = Cc1ccc(Cl)cc1Oc1ccc(S(=O)(=O)Nc2ccc(F)cn2)cc1C#N [Example 39]
D = Cc1cccnc1NS(=O)(=O)c1ccc(Oc2ccc(C#N)c(Cl)c2)c(C#N)c1 [Example 101]
E = Cc1ncccc1Oc1ccc(S(=O)(=O)Nc2ccc(F)cn2)cc1C#N [Example 184]
Inquiry: Please list these compounds in decreasing order of IC50. # answer = labels listed in requested order
Reply text: A, D, E, B, C
(A: 1310 nM, D: 594 nM, E: 385 nM, B: 182 nM, C: 80 nM)

----------
target: URAT-1 transporter (Homo sapiens (Human), UniProt Q96S37); assay: URAT-1 inhibitor activity: [14C]-uric acid uptake in CHO-URAT1(L)GFP#8 (CHO#8) cells, scintillation proximity; type: cell-based; conditions: inhibition of [14C]-uric acid (30 nM) uptake into CHO#8 cells; compound 0 to 10 μM; 4 parameter logistic fit
Sequence (Q96S37 other isoform, or with tags, fused parts or gaps): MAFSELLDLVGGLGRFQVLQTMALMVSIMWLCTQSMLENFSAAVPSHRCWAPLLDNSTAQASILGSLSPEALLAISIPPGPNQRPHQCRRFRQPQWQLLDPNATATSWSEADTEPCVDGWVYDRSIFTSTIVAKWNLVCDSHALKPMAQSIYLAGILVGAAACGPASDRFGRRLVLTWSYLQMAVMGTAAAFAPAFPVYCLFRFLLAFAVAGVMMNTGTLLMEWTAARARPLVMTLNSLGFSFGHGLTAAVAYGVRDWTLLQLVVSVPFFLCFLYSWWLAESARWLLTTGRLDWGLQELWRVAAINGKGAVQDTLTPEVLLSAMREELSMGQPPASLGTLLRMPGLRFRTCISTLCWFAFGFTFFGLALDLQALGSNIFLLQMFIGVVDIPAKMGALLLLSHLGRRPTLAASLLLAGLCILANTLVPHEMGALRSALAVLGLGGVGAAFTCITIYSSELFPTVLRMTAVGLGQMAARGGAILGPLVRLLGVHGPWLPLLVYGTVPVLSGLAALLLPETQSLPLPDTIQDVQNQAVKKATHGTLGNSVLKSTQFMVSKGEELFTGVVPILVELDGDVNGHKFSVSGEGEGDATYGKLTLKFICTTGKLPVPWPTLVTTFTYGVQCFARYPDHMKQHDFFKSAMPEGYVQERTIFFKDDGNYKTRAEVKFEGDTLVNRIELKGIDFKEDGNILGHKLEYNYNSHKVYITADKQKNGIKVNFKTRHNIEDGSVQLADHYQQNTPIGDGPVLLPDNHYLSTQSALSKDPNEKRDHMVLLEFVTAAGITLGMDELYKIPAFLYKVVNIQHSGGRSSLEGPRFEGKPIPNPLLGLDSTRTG
pIC50: −log10 of the molar value.
measurement.label: pIC50

Cc1ccc(NS(=O)(=O)c2ccc(Oc3ccc(C#N)c(Cl)c3)c(C#N)c2)nc1 [compound 233]	6.63
N#Cc1cc(Oc2ccc(S(=O)(=O)Nc3ccc(F)cn3)cc2C#N)ccc1F [Example 19]	7.24

a = N#Cc1ccc(Oc2ccc(S(=O)(=O)Nc3cccnn3)cc2C#N)cc1F [Example 88]
b = N#Cc1cc(S(=O)(=O)Nc2ccc(F)cn2)ccc1Oc1cnc(OC(F)F)c(Cl)c1 [compound 231]
c = N#Cc1cc(S(=O)(=O)Nc2ccc(F)cn2)ccc1Oc1ccccc1Cl [Example 9]
d = COc1cc(Oc2ccc(S(=O)(=O)Nc3ccc(F)cn3)cc2C#N)ccc1Cl [Example 71]
Inquiry: I would appreciate it if you could sort these 4 molecules by pIC50, starting from the smallest number. # answer = labels listed in requested order
Reply text: a, c, b, d

----------
target: URAT-1 transporter (Homo sapiens (Human), UniProt Q96S37); assay: URAT-1 inhibitor activity: [14C]-uric acid uptake in CHO-URAT1(L)GFP#8 (CHO#8) cells, scintillation proximity; format: cell-based; details: inhibition of [14C]-uric acid (30 nM) uptake into CHO#8 cells; compound 0 to 10 μM; 4 parameter logistic fit
pIC50: −log10 of the molar value.
measurement.label: pIC50

N#Cc1ccc(Oc2ccc(S(=O)(=O)Nc3cccnn3)cc2C#N)cc1Cl	5.41
COc1cccnc1NS(=O)(=O)c1ccc(Oc2ccc(C#N)c(Cl)c2)c(C#N)c1	5.50
COc1ccc(C)c(Oc2ccc(S(=O)(=O)Nc3ccc(F)cn3)cc2C#N)c1	7.28
Cc1ccccc1Oc1ccc(S(=O)(=O)Nc2ccc(F)cn2)cc1C#N	6.49

a = Cc1ccc(C)c(Oc2ccc(S(=O)(=O)Nc3ccc(F)cn3)cc2C#N)c1
b = N#Cc1cc(S(=O)(=O)Nc2ccc(F)cn2)ccc1Oc1cccc(C#N)c1F
Inquiry: Identify the entry with the larger pIC50. Options: a and b Please identify the chosen entry by its label.
Reply text: a

A = N#Cc1cc(S(=O)(=O)Nc2ccc(F)cn2)ccc1Oc1cc(Cl)ccc1Cl
B = N#Cc1cc(S(=O)(=O)Nc2ccc(F)cn2)ccc1Oc1cccc(Cl)c1F
C = N#Cc1ccc(Oc2ccc(S(=O)(=O)Nc3ccc(F)cn3)cc2C#N)cc1
D = N#Cc1cc(S(=O)(=O)Nc2ccc(F)cn2)ccc1Oc1ccc(F)c(F)c1
Inquiry: Please list these compounds in decreasing order of pIC50. # answer = labels listed in requested order
Reply text: D, C, B, A
(D: 7.37, C: 7.13, B: 6.87, A: 6.24)

a = Cc1ccncc1Oc1ccc(S(=O)(=O)Nc2ccc(F)cn2)cc1C#N
b = COc1ccc(Cl)c(Oc2ccc(S(=O)(=O)Nc3ccc(F)cn3)cc2C#N)c1
c = COc1cccc(Cl)c1Oc1ccc(S(=O)(=O)Nc2ccc(F)cn2)cc1C#N
Inquiry: Please list these compounds in decreasing order of pIC50. # answer = labels listed in requested order
Reply text: c, b, a

P = Cc1ncc(Oc2ccc(S(=O)(=O)Nc3ccc(F)cn3)cc2C#N)cc1Cl
Q = N#Cc1cc(S(=O)(=O)Nc2ccc(F)cn2)ccc1Oc1ccc(F)c(F)c1Cl
R = Cc1cc(Cl)ccc1Oc1ccc(S(=O)(=O)Nc2ccc(F)cn2)cc1C#N
S = N#Cc1cc(S(=O)(=O)Nc2ccc(F)cn2)ccc1Oc1ccc(F)c(C(F)(F)F)c1
Inquiry: I would appreciate it if you could sort these 4 compounds by pIC50, starting from the smallest number. # answer = labels listed in requested order
Reply text: S, R, P, Q
